- Assay Info: Cytotoxicity in MRC-5 cells (CellTiter 96)
- Measurement Setup: human, MRC-5 cells (embryonal lung fibroblasts)
Where no end group is shown, it is not given here.

Substance: FFVAP [Phe-Phe-Val-Ala-Pro]
viability at 144 h, %: 100

----------
- Assay Info: Cell viability in HepG2-2.2.15 cells (dye uptake)
- Type: cell-based
- Measurement Setup: human, HepG2-2.2.15 cells (stable line containing HBV ayw genome), test peptide 10 micrograms per ml, dye uptake assay
Where no end group is shown, it is not given here.
Quantity: viability at 144 h, 10 micrograms per ml (%)

Substance: FFVAP [Phe-Phe-Val-Ala-Pro]
Quantity: viability at 144 h, 10 micrograms per ml
Experimental Value: 98.1
